Target: Casein kinase I isoform gamma-3 (Homo sapiens);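 also: reported value is the mean percent inhibition of the kinase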
Settings: at 0.1 µM
Result type: inhibition (%)

INSERT INTO assay_data (molecule, result_type, assay_result) VALUES
  ('O=C1NC(=O)C(c2cccc(Cl)c2)=C1Nc1ccc(O)c(Cl)c1', 'inhibition', 1.06),
  ('COc1ccc(COc2ccc(Cc3cnc(N)nc3N)cc2OC)cc1', 'inhibition', -0.67),
  ('CNC(=O)c1cncc(/C=C/c2c(Cl)cccc2Cl)c1', 'inhibition', 1.61),
  ('Fc1cccc(COc2ccc(Nc3ncnc4sc(-c5cccs5)cc34)cc2Cl)c1', 'inhibition', -0.15),
  ('CC1=C(C(=O)Nc2ccc3[nH]ncc3c2)C(c2ccc(Cl)c(Cl)c2)CC(=O)N1 (stereo not given)', 'inhibition', -0.44),
  ('CS(=O)(=O)CCNCc1ccc(-c2ccc3ncnc(Nc4ccc(OCc5cccc(F)c5)c(C(F)(F)F)c4)c3c2)o1', 'inhibition', 2.34),
  ('CC1=C(C(=O)Nc2ccc3[nH]ncc3c2)C(c2ccc(F)cc2)NC(=O)N1 (stereo not given)', 'inhibition', 0.29),
  ('CCn1c(-c2nonc2N)nc2cncc(C(=O)N3CCNCC3)c21', 'inhibition', 3.46),
  ('O=C1NC(=O)C(N2CCc3ccccc32)=C1c1ccc(Cl)cc1', 'inhibition', 4.47),
  ('COC(=O)Nc1nc2cc(Oc3cccc(NC(=O)Nc4cc(C(F)(F)F)ccc4F)c3)ccc2[nH]1', 'inhibition', -2.32);

---

inhibition values for the molecules below.
Biological target: Serine/threonine-protein kinase BRSK2 (Homo sapiens);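 also: values are mean inhibition of BRSK2 from the GSK PKIS screening dataset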
Conditions: at 0.1 µM
Result type: inhibition

INSERT INTO measurements (molecule, result_type, assay_result) VALUES
  ('COc1cc2c(cc1Nc1nc(N3CCc4ccccc43)c3cc[nH]c3n1)N(C(=O)CN(C)C)CC2', 'inhibition', '0.98%'),
  ('O=C1NC(=O)C(c2ccc(Cl)cc2)=C1Nc1ccc(Cl)c(C(=O)O)c1', 'inhibition', '0.35%'),
  ('COc1cc2ncn(-c3cc(O[C@@H](C)c4ccccc4Cl)c(C(N)=O)s3)c2cc1OC', 'inhibition', '19.4%'),
  ('Nc1nc(-c2ccc3c(c2)C(=Cc2cc(Br)c(O)c(Br)c2)C(=O)N3)cs1', 'inhibition', '0.58%'),
  ('N#Cc1c(NC(=O)c2cccc3ccccc23)sc2c1CCCC2', 'inhibition', '1.18%'),
  ('CCn1c(-c2nonc2N)nc2c(N3CCCC3)nccc21', 'inhibition', '1.48%'),
  ('CC1=C(C(=O)Nc2ccc3[nH]ncc3c2)C(c2ccc3ccccc3c2)CC(=O)N1 (stereo unspecified)', 'inhibition', '3.96%'),
  ('NS(=O)(=O)c1cccc(-c2ccc3c(NC(=O)C4CC4)n[nH]c3c2)c1', 'inhibition', '12.6%'),
  ('COC(=O)Nc1nc2cc(Oc3cccc(NC(=O)Nc4cc(C(F)(F)F)ccc4F)c3)ccc2[nH]1', 'inhibition', '1.38%'),
  ('CCCN1CCC(Oc2cc(Nc3nc(Nc4cccc(F)c4C(N)=O)c4cc[nH]c4n3)c(OC)cc2Cl)CC1', 'inhibition', '-0.51%'),
  ('COc1ccc(COc2ccc(Cc3cnc(N)nc3N)cc2OC)cc1', 'inhibition', '2.82%');

---

Target: Tyrosine-protein kinase JAK1 (Homo sapiens);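 also: each value is a mean inhibition of JAK1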
Conditions: at 1 µM
Result type: inhibition (%)

INSERT INTO assay_data (smiles_entry, result_type, quantity_unit, assay_result) VALUES
  ('CS(=O)(=O)CCNCc1ccc(-c2ccc3ncnc(Nc4ccc(OCc5ccccc5)c(Cl)c4)c3c2)o1', 'inhibition', '%', 1.78),
  ('Nc1nc(-c2ccc3c(c2)C(=Cc2cc(Br)c(O)c(Br)c2)C(=O)N3)cs1', 'inhibition', '%', -0.48),
  ('COc1ccc(COc2ccc(Cc3cnc(N)nc3N)cc2OC)cc1', 'inhibition', '%', -0.05),
  ('Cc1nnc(-c2ccc(C)c(-c3ccc(C(=O)Nc4cccc(C#N)c4)cc3)c2)o1', 'inhibition', '%', 6.74),
  ('COc1cc(C=NNc2ncnc3c2cnn3-c2ccccc2)ccc1O', 'inhibition', '%', 3.21),
  ('CN(C)c1cc2c(Nc3ccc4nc(Cc5ccccc5)[nH]c4c3)ncnc2cn1', 'inhibition', '%', 8.16),
  ('CCn1c(-c2nonc2N)nc2cncc(C(=O)N3CCNCC3)c21', 'inhibition', '%', 4.72),
  ('Fc1cccc(COc2ccc(Nc3ncnc4cc(-c5ccc[nH]5)sc34)cc2Cl)c1', 'inhibition', '%', 13.6),
  ('COC(=O)Nc1nc2cc(Oc3ccc(NC(=O)Nc4cccc(C(=O)O)c4)cc3)ccc2[nH]1', 'inhibition', '%', 2.01),
  ('c1cnn2ncc(-c3ccnc(Nc4ccc5c(c4)OCCO5)n3)c2c1', 'inhibition', '%', 19.7);
